target: T1, His-tagged human HER3 antigen (human, UniProt P21860 20-643); assay: SPR, Biacore 8K; antibody captured, His-tagged human HER3 antigen 6.25-400 nM as analyte; 1:1 Langmuir
T1 construct: Soluble antigen used as analyte in SPR; not shown: His tag
measurement_name: kon (M⁻¹ s⁻¹)
One number for each entry, in M⁻¹ s⁻¹.

Antibody A T94V (antibody, human IgG1, kappa, V domains shown, Differs from antibody A only by T to V at position 94 of VL) VH: QVQLVQSGGGLVQPGRSLRLSCAASGFTFDDYAMHWVRQAPGKGLEWVSGISWNSGSIGYADSVKGRFTISRDNAKNSLYLQMNSLRAEDTALYYCAKEGLPGLDYWGQGTLVTVSS VL: DIQMTQSPSSLSASIGDRATITCRASQHVGTYLNWYQQKPGKTPKLLISGAANLQSGVPSRFSGSGSGTDFTLTISSLQPEDFATYYCQQSYNVPPFSFGQGTKVEIKR : 717000
Antibody A N93S (antibody, human IgG1, kappa, V domains shown, Differs from antibody A only by N to S at position 93 of VL) VH: QVQLVQSGGGLVQPGRSLRLSCAASGFTFDDYAMHWVRQAPGKGLEWVSGISWNSGSIGYADSVKGRFTISRDNAKNSLYLQMNSLRAEDTALYYCAKEGLPGLDYWGQGTLVTVSS VL: DIQMTQSPSSLSASIGDRATITCRASQHVGTYLNWYQQKPGKTPKLLISGAANLQSGVPSRFSGSGSGTDFTLTISSLQPEDFATYYCQQSYSTPPFSFGQGTKVEIKR : 659000
Anti-HER3 antibody A (antibody, human IgG1, kappa, V domains shown) VH: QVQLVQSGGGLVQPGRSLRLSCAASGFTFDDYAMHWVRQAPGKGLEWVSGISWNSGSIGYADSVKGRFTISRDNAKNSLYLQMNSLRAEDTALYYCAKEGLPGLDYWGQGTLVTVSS VL: DIQMTQSPSSLSASIGDRATITCRASQHVGTYLNWYQQKPGKTPKLLISGAANLQSGVPSRFSGSGSGTDFTLTISSLQPEDFATYYCQQSYNTPPFSFGQGTKVEIKR : 707000

Below: the item to evaluate.
Which value of kon has been reported for Antibody A N93T (antibody, human IgG1, kappa, V domains shown, Differs from antibody A only by N to T at position 93 of VL) VH: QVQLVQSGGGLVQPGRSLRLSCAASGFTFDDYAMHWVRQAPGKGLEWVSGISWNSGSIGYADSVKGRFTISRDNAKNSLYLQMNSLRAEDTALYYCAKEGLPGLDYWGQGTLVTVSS VL: DIQMTQSPSSLSASIGDRATITCRASQHVGTYLNWYQQKPGKTPKLLISGAANLQSGVPSRFSGSGSGTDFTLTISSLQPEDFATYYCQQSYTTPPFSFGQGTKVEIKR in the records?
336000
